# Species: Rattus norvegicus
# assay name: DrugMatrix - Regimen: Daily Repeat
# Type: toxicity, organism-based, Sprague-Dawley
# Design: regimen Daily Repeat, gender Male, age 6-8 weeks
# condition info: in vivo, po, 0 mg/kg, 120 h, tissue Blood, route oral GAVAGE, dose level Control, time 5 day, vehicle .5 % CMC
observed property: ABSOLUTE SEGMENTED NEUTROPHIL (CELLS/uL)
Please state the figure in CELLS/uL; there is no need to write the unit.

Below, each entry is followed by its recorded ABSOLUTE SEGMENTED NEUTROPHIL result.
molecule: COc1cc(OC)c(C(=O)CCCN2CCCC2)c(OC)c1 [BUFLOMEDIL]
assay value: 980.67
//
molecule: COc1ccccc1[N+](=O)[O-] [2-NITROANISOLE]
assay value: 1329.83
//
molecule: C[C@@H]1O[C@@H](O[C@H]2C[C@@H](O)[C@]3(CO)[C@H]4[C@H](O)C[C@]5(C)[C@@H](C6=CC(=O)OC6)CC[C@]5(O)[C@@H]4CC[C@]3(O)C2)[C@H](O)[C@H](O)[C@H]1O [OUABAIN]
assay value: 1050.33
//
molecule: C[C@@](Cc1ccc(O)c(O)c1)(NN)C(=O)O.O [CARBIDOPA]
assay value: 1468.33
//
molecule: NC(=O)N1c2ccccc2CC(=O)c2ccccc21 [OXCARBAZEPINE]
assay value: 1084.33

Attention now shifts to the item below.
# input I'd like to know its ABSOLUTE SEGMENTED NEUTROPHIL. The molecule in question is C[C@]12CC[C@@H]3c4ccc(O)cc4CC[C@H]3[C@@H]1C[C@@H](O)[C@@H]2O [ESTRIOL]
# output 1225

Entry source: ChEMBL document CHEMBL3885881
